ASSAY_EXPLANATION: yeast display, Sf9 membrane polyspecificity reagent, FACS + sequencing; frameworks hold sequencing errors
PROPERTY: polyreactivity (PSR sort gate)

{"columns": ["SEQUENCE_DATA", "READING"],
 "data": [
  ["QVQLVESGGGLVQAGGSLRLSCAASGRIFYVYAMGWYRQAPGKERELVATITYRGDTDYADSVKGRFTSSRDNAKNTVYLQMNSRKPEDTAVYYCAKDFEAGDDYFAYDYWGQGTQVTVSS", "low polyreactivity"],
  ["QVQLVESGGGLVQAGGSLRLSCAASGSIFKSNAMGWYRQAPGKERELVAAISNGGITNYADSVKGRFTISRDNAKNTVYLQMNSLKPEDTAVYYCATSDVREIWVDYWGQGTQVTVSS", "low polyreactivity"],
  ["QVQLVESGGGLVQAGGSLRLSCAASGYIFGYYAMGWYRQAPGQEREFVAAINWSGGSTYYADSVNGRFTISRDNAKNTVYLQMNSLKPEDTAVYYCARSYRSRVVYKFGYWGQGTQVTVSS", "high polyreactivity"],
  ["QVQLVESGGGLVQAGGSLRLSCAASGSIFQPNAMGWYRQAPGKERELVASIRGRGGDTYYADSVKGRFTISRDTAKNTVYLQMNSLKPEDTAVYYCAADYRWGQGTQVTVSS", "low polyreactivity"],
  ["QVQHVESGGGIVQAGGSLRLSCAASGSTFSGYAMGWYRQAPGKERELVASISSGGRTTYADSVKGRFTISRDNAKNTVYLQMNSLKPEDTAVSYCAKRIRPGYARLYSWGQGTQVTVSS", "high polyreactivity"]
]}

====

ASSAY_EXPLANATION: yeast display, Sf9 membrane polyspecificity reagent, FACS + sequencing; frameworks hold sequencing errors
PROPERTY: polyreactivity (PSR sort gate)

{"columns": ["SEQUENCE_DATA", "PROPERTY", "READING"],
 "data": [
  ["QVQLVESGGGLVQAGGSLRLSCAASGSTFKAYAMGWYRQAPGKEWELVAAISASGGTTYYADSVKGRFTISRDNAKNTVYLQLKSLKPEDTAVYYCNARHPYTGGRRYPYTRYGYWGQGTQVTVSS", "polyreactivity (PSR sort gate)", "high polyreactivity"],
  ["QVQLVESGGGLVQAGGSLRLSCAASGLIFGWYAMGWYRPEPGKEREFVASIRYGGGSTYYADSVKGRFTISRDNAKNTVYLQMNSLKPEDTAVYYCAADRYPWHLQYVEYDSDYWGQGTQVTVSS", "polyreactivity (PSR sort gate)", "low polyreactivity"],
  ["QVQLVESGGGLVQAGGILRLSCAASGIILYINAMGWYRQAPGKERELVAAITSDGSTNYADSVKGRITISRDNAKYTVYLQMNSLKPEDTAVYYCAVDLPWGTGVSQYPESDYWGQGTQVTVSS", "polyreactivity (PSR sort gate)", "low polyreactivity"],
  ["QDQLVESGGGLVQAGGSLRLSCAASGRIFEGNAMGWYRQAPGKEREFLAAISDGGSTNYADSVKGRFTISRDNAKNTVYLQLNSLKPEETAVYYCNVGANVYMLYFPSRGGVYDYGYWGQGTQVNVSS", "polyreactivity (PSR sort gate)", "low polyreactivity"],
  ["QFQLVESGGGLVQAGGILRLSCAASGSIFYHNAMGWSRQAPGKERELVAAITGSGGSTYYADSVKGRFTISRDNAKNTVYLQMNSLKPEDTAVYYCAADGYTKWWISWGYDYWGQGTQVTVSS", "polyreactivity (PSR sort gate)", "low polyreactivity"],
  ["QVQLVESGGGLVQAGGSLRLSCAASGGTFGRYAMGWYRQAPGKERELFAAITWGGTRTYYADSVKGRFTISRDNAKNTVYLQMNSLKPEDTAGYYCAAYSNYPVFDYNYWGQGTQVTVSS", "polyreactivity (PSR sort gate)", "high polyreactivity"],
  ["QVQLVESGGGLVQAGGSLRLSCAASGRTFLRYAMGWYRQAPGKERELVAAISVSGGNTYYADSVKGRFTISRDNAKNTVYLQMNSLKPEDTAVYYCNKARLAAVFSYPYGYWGQVTQVTVSS", "polyreactivity (PSR sort gate)", "low polyreactivity"],
  ["QVQLVESGGGLVQAGGSLRLSCAASGRIFSSYAMGWSRQAPGKERELVAAISSSGGNTYYADSVKGRFTISRDNAKNTVYLQMNSLKPEDTAVYYCNTRWVHRDWYDYWGQGTQVTVSS", "polyreactivity (PSR sort gate)", "high polyreactivity"],
  ["QDPHVESGGGIVQAGGSISLRCSASGSTYAKKAMVRYRKAPGKEKELFADISASGGSTYYADSVKGRFTISRDIAKNSVYLQMYSLKPEETSVYYWAKSSYLTRGSRYDYWGQGTQVTLSS", "polyreactivity (PSR sort gate)", "low polyreactivity"],
  ["QVQLVDSGGRLEQAGGSLRLSCAASGSIFGWNAMGWYRQAPGKERELVAAINWTGGTTYYADSVKGRITISRDNAKYTVYLQMKSLKPADTAVYYCAARLTYHVAGQITRYYYWGQGTQVTVSS", "polyreactivity (PSR sort gate)", "low polyreactivity"],
  ["QVQLVESGGGLVQAGGSLRLSCAASGRTFYRNAMGWYRQAPGKERELVAAITRGGRTYYADSVKGRFTISRDNAKNTVYLQMNSLKPEDTAVYYCNAVSYSSTLASKIPDDYWGQGTQVTVSS", "polyreactivity (PSR sort gate)", "high polyreactivity"]
]}

====

ASSAY_EXPLANATION: yeast display, Sf9 membrane polyspecificity reagent, FACS + sequencing; frameworks hold sequencing errors

{"columns": ["SEQUENCE_DATA", "polyreactivity (PSR sort gate)"],
 "data": [
  ["QDQLVESGGGLVQAGGSLSLSCAASGQTFYQYAMGWYRQAPGKERELVAAISKSAGSTYYADSVKGRFTISRDNAKNTVYLQMNSLKPEDTAVYYCVARVLRLRYDYWGQGTQVSVSS", "high polyreactivity"],
  ["QVQLVDSGGGLVQAGGSLRLSCAASGYIFRVYAMGWYRQAPGKERELVAAISGSGGRTYYADSVKGRFTISRDNAKNTVYLQMNSLKPEDTAVYYCAAYRVSDYDYWGQGTQVTVSS", "high polyreactivity"],
  ["QVQLVESGGGLVQAGGSLRLSCAASGFIFVDYVMGWDIQAPGKERELVAAISERGTGTYYADSVKRRFTISRDKAKNTVYLQMNSLKPEDTAVYYCATLGTGWWNCAYYYWGQGTQVTVSS", "low polyreactivity"],
  ["QVHLVESGGRLVKAGGSLRLSCPASGYITTKYAMGWYRQAPGKEMELVAAIRYSGTSTYYADSVKGRFTISRDNATNTVYLQMNSLKPEDTAVYYCNTRRYVRTTKYDYWGQGTQVTVSS", "high polyreactivity"],
  ["QVQLVESGGGLVQAGGSLRLGCAASGITFTPYAMGWYRQAPGKERELVAAISWRGGSTYYADSVKGRFTISRDNAKNTVYLQMNSLKPEDTAVYFCAKDGRGYGRYSRYYTGDYWGQGTQVTVSS", "low polyreactivity"]
]}

====

ASSAY_EXPLANATION: yeast display, Sf9 membrane polyspecificity reagent, FACS + sequencing; frameworks hold sequencing errors

{"columns": ["SEQUENCE_DATA", "polyreactivity (PSR sort gate)"],
 "data": [
  ["QVKLVESGGGLVQAGGSLRLTCAASGSTFGPYAMGWYRQEPGKERELVSTITRNGGSTYYADSVKGRFTISRDNAKNTVYLQMNSLKPEDTAVYYCNAEGRWSSFTQRMDYWGQGTQVTVSS", "low polyreactivity"],
  ["QVQLVESGGGLVQAGGSLRLSCADSGFTFATYAMGWYRQAPGKKGRLVAAISNAGSTKYADSVKGRFTISRDNAKNTFYLQLNSLKPEDTAVYYCAASTLYASYYYLYYYWGQGTQVTVSS", "high polyreactivity"],
  ["QVQLVESGGGLVQAGGSLRLSCAASGIIFANNAMGWYRQAPGKERELVARISRSGGGTYYADSVKGRFTISRDNAKNTVYLQMNSLKPEDTAVYYCNAESSYYYGTAAYEYWGQGTQVTVSS", "low polyreactivity"],
  ["QVQLVESGGGLVQAGGSLRLSFAASGSTFRRYDMGWYRQAPGKERELVADISDRGSRTYYADSVKGRFTISRDNAKKTVYFQMNSLEPEYTAVYYCAAEAVGNTSPGDYWGQGTQVTVSS", "high polyreactivity"],
  ["QVQLQESGGGLVQAGVSLRLSGAASGYISTFSSEMGWYRQAPVKERELVASIAPGCTTSYADSVKGRFTISRDNAKNTVYLQMNSLKPEDTAVYYCAVDYTVPASFGYWGQGTQVTVSS", "high polyreactivity"],
  ["QVKLVESGGGLVQAGGSLRLSCAASGNTFGGYAMGWYRQAPGKERELVAAISSSGGSTYYADSVKGRFTISRDNAKNTVYLQMNSLKPEDTAVYYCAAYGGFYGYWTMGYWGQGTQVTVSS", "high polyreactivity"],
  ["QVQLVESGGGLVQAGGSLRLSCAASGSTFNTYVMGWYRQAPGKERELVAAISSSGGTTYYADSVKGRFTISRDNAKNTVYLQMNSLKPEDTAVYYCNAVPKYGSRLYRYGYWGQGTQVTVSS", "high polyreactivity"],
  ["QVQLVESGGGLVQEGGSLRLSCAASGFIFDGNAMGWYRQAPGKERELVAAMSWDGGTYYADSVKGRFTISRDNAKNTVYLQMNSLKPEDTAVYYCAAEQTQLYSFGWDEYWGQGTQVTVSS", "low polyreactivity"],
  ["QVQLVESGGRLVQAGGSLRLSCAASGLIFAPYAMGWYRQAPGKEWELVAAISSSGTSTYYADSVKGRFTISRDNAKNTVYLQMNSLKPEDTAVYYCAAVYWTFWGTIATRYDYWGQGTQVTVSS", "high polyreactivity"],
  ["QVQLVESGGGLVQAGGSLRLSCAASGLTFSTYDMGWYRQAPGKERELVAAITSGDGSTYYADSVKGRFTISRDTAKNTVYLQMNSLKPEDTAVYYCAADYLEWYGDVLFPYDYWGQGTQVTVSS", "low polyreactivity"],
  ["QVQLVESGGGLVQAGGRLRLTCAASGSIFWSNAMGLYRQAPGKERELVAAITSGGSTYYADSVKGRFTISRDNAKNTVYLQMNSLKPEDTAVYYCAARPEVRHQYRRYDYWGQGTQVTVSS", "low polyreactivity"]
]}
